# test summary: RP, Merck Supelco Ascentis Express C18, 100 × 2.1 mm, 2 µm, 40 °C, 0.35 mL/min, estimated dead time 0.63 min; A: water + 0.1% formic acid, pH 3; B: acetonitrile + 0.1% formic acid, pH 3; gradient (min/%B) 0/5 2/5 17/99.9 20/99.9
# condition label: stereoisomer not certain
measured parameter: log10(LC retention time) (log10 of the value in min)
Use the decimal logarithm of LC retention time (min).

Use these answered entries as a reference point.
INSERT INTO measurements (compound, recorded_number) VALUES
  ('C[Se]CCC(N)C(=O)O (configuration not stated)', -0.12),
  ('O=C(C=Cc1ccc(O)c(O)c1)OC(Cc1ccc(O)c(O)c1)C(=O)O (configuration not stated) [ROSMARINATE]', 0.76),
  ('O=C(O)c1ccc(O)cc1 [4-HYDROXYBENZOATE]', 0.47),
  ('CSCC[C@H](NC=O)C(=O)O', 0.33),
  ('O=c1ccn(C2CC(O)C(CO)O2)c(=O)[nH]1 (configuration not stated)', -0.09),
  ('OCC(O)C(O)CO (configuration not stated)', 0.00);

Query string: Provide one value: measured log10(LC retention time) of "Cc1cc2nc3[nH]c(=O)[nH]c(=O)c3nc2cc1C"
Result string: 0.76

---

# test summary: RP, Merck Supelco Ascentis Express C18, 100 × 2.1 mm, 2 µm, 40 °C, 0.25 mL/min, estimated dead time 0.88 min; A: water + 0.1% formic acid, pH 3; B: acetonitrile + 0.1% formic acid, pH 3; gradient (min/%B) 0/5 2/5 17/99.9 20/99.9
# condition label: stereoisomer not certain
Each entry below carries its recorded LC retention time.
Kindly provide the numeric value in min only, without the unit symbol.

Use these answered entries as a reference point.
INSERT INTO assay_data (molecule, measured_parameter, unit_info, recorded_number) VALUES
  ('CCCCCCCCCCCC(=O)OC(CC(=O)[O-])C[N+](C)(C)C (stereo not given)', 'LC retention time', 'min', 10.2),
  ('NCCc1c[nH]c2ccccc12', 'LC retention time', 'min', 3.97),
  ('CCCCCCCCCCCC=CCCCCC(=O)[O-] [PETROSELINATE]', 'LC retention time', 'min', 17.4),
  ('Nc1nc2ncc(CNc3ccc(C(=O)NC(CCC(=O)O)C(=O)O)cc3)nc2c(=O)[nH]1 (stereo not given) [FOLATE]', 'LC retention time', 'min', 4.27);

Query string: Provide one value: measured LC retention time of CSCC1OC(n2cnc3c(N)ncnc32)C(O)C1O (stereo not given)
Result string: 3.51

---

# test summary: RP, Merck Supelco Ascentis Express C18, 100 × 2.1 mm, 2 µm, 40 °C, 0.25 mL/min, estimated dead time 0.88 min; A: water + 0.1% formic acid, pH 3; B: acetonitrile + 0.1% formic acid, pH 3; gradient (min/%B) 0/5 2/5 17/99.9 20/99.9
# condition label: stereoisomer not certain
measured parameter: log10 of LC retention time (log10 of the value in min)
Use the decimal logarithm of LC retention time (min).

INSERT INTO measurements (compound, measured_parameter, recorded_number) VALUES
  ('NCCc1ccc(O)cc1', 'log10 of LC retention time', 0.04),
  ('O=C(C=Cc1ccc(O)c(O)c1)OC(Cc1ccc(O)c(O)c1)C(=O)O (stereo not given) [ROSMARINATE]', 'log10 of LC retention time', 0.81),
  ('CCCCCCCCCCCCCCCCCC(=O)[O-] [STEARATE]', 'log10 of LC retention time', 1.26),
  ('O=C([O-])CCCCCCC(=O)[O-] [SUBERATE]', 'log10 of LC retention time', 0.74),
  ('CC1NC(=O)NC1CCCCCC(=O)O (stereo not given)', 'log10 of LC retention time', 0.73);

Query string: Provide one value: measured log10 of LC retention time of CC(CCCC(C)(C)O)C1CCC2C3CC=C4CC(O)CCC4(C)C3CCC12C (stereo not given) [25-HYDROXYCHOLESTEROL]
Result string: 1.26

Query string: Provide one value: measured log10 of LC retention time of CC(=O)NC(CCC(=O)O)C(=O)O (stereo not given) [N-ACETYLGLUTAMATE]
Result string: 0.03

Query string: Provide one value: measured log10 of LC retention time of O=c1[nH]c(=O)c2nccnc2[nH]1 [2,4-DIHYDROXYPTERIDINE]
Result string: 0.05

Query string: Provide one value: measured log10 of LC retention time of CC(=O)OCC(=O)C1(O)CCC2C3CCC4=CC(=O)CCC4(C)C3C(O)CC21C (stereo not given) [CORTISOL 21-ACETATE]
Result string: 0.96

Query string: Provide one value: measured log10 of LC retention time of "CSCC[C@H](NC=O)C(=O)O"
Result string: 0.48
